FYI, the data here is from ChEMBL document CHEMBL5537162.

# METHOD SUMMARY: Stability in methicillin-resistant Staphylococcus aureus supernatants measured for 12 hrs by RP-HPLC analysis
# Format: physicochemical
# MEASUREMENT CONTEXT: read-out: Stability
Can you tell me remaining at 12 h for the items I'm about to list?
// return numeric value only (unit: %, not printed)

What does the record list as remaining at 12 h for "H-RRRLARRLIFFIRRAW-NH2" ?
25

What does the record list as remaining at 12 h for "H-LARVARRVIRFIRRAW-NH2" ?
50

====

# Tested on: Erythrocyte
# METHOD SUMMARY: Hemolytic activity in mouse RBC assessed as hemolysis incubated for 1 hrs by spectrophotometric analysis
# Assay type: toxicity, cell-based
# MEASUREMENT CONTEXT: erythrocyte, 1 h
Can you tell me HC10 for the items I'm about to list?

What does the record list as HC10 for "H-KASVSVKVTASLSKAWTNSQ-NH2" ?
> 320 µM

What does the record list as HC10 for "H-KGVIFAKASVSVKVTASLSKAWTNSQ-NH2" ?
> 320 µM

What does the record list as HC10 for "H-RRRVARRVIRFIRRAW-NH2" ?
320 µM

What does the record list as HC10 for "H-KARVAVKVIRFLYKAW-NH2" ?
> 320 µM

What does the record list as HC10 for "H-RRRVARRVFWFVRRAV-NH2" ?
> 320 µM

What does the record list as HC10 for "H-RARVRVRVRRFLRRRW-NH2" ?
320 µM

What does the record list as HC10 for "H-RRPLARPLIRFIRRPW-NH2" ?
> 320 µM

What does the record list as HC10 for "H-LARVARRVIRFIRRAW-NH2" ?
> 320 µM

What does the record list as HC10 for "H-KASVSVKVTASLSKAW-NH2" ?
> 320 µM

What does the record list as HC10 for "H-RRWIARRAIWRRRRWW-NH2" ?
92.35 µM

What does the record list as HC10 for "H-LFRVVRRVVRFIRRAA-NH2" ?
> 320 µM

What does the record list as HC10 for "H-RRRWARRIIWIIRRAW-NH2" ?
> 320 µM

What does the record list as HC10 for "H-WRWWRRRRWWRWRRWW-NH2" ?
33.2 µM

What does the record list as HC10 for "H-WARIARRAIRAWRRWW-NH2" ?
75.19 µM

What does the record list as HC10 for "H-LRRFARRLIRRIRRAW-NH2" ?
> 320 µM

What does the record list as HC10 for "H-LRPLARRPIRRIRRAW-NH2" ?
> 320 µM

What does the record list as HC10 for "H-KARVSVKVTASLSKAW-NH2" ?
> 320 µM

What does the record list as HC10 for "H-RRRLARRLIFFIRRAW-NH2" ?
> 320 µM

What does the record list as HC10 for "H-RRWWWRRWWWRRRRWW-NH2" ?
25.91 µM

What does the record list as HC10 for "H-RRFFVRRVFFRRRRFF-OH" ?
41.05 µM

What does the record list as HC10 for "H-RARVAVRVIRFLYRAW-NH2" ?
320 µM
